Source listed as patent US8575135B2.

Recorded EC50 for the following molecules
Tested on: NS5A chimeric genotype 2a JFH-1 replicon with genotype 2b MD2b-1 strain NS5A gene (M31 present)
Test: microbe, parasite or virus in culture
Format: cell-based, HCV
Conditions: Hepatitis C virus, read-out: 2b (t) (nM)
A number alone suffices; assume nM.

QUERY: Annotate the molecule COC(=O)N[C@H](C(=O)N1[C@@H](C)CC[C@H]1c1ncc(-c2ccc3c(c2)COc2cc4c(ccc5nc([C@@H]6CCCN6C(=O)[C@H](N)c6ccccc6)[nH]c54)cc2-3)[nH]1)C(C)C with its measured EC50.
RESULT: 0.017

QUERY: Annotate the molecule COC[C@H]1C[C@@H](c2nc3ccc4cc5c(cc4c3[nH]2)OCc2cc(-c3cnc([C@@H]4CC6C[C@H]6N4C(=O)[C@@H](NC(=O)OC)C(C)C)[nH]3)ccc2-5)N(C(=O)[C@H](NC(=O)OC)c2ccccc2)C1 (stereo partly drawn) with its measured EC50.
RESULT: 0.009

QUERY: Annotate the molecule COC[C@H]1C[C@@H](c2ncc(-c3ccc4c(c3)COc3cc5c(ccc6nc([C@@H]7C[C@H](COC(F)F)CN7C(=O)[C@@H](NC(=O)OC)C(C)C)[nH]c65)cc3-4)[nH]2)N(C(=O)[C@@H](NC(=O)OC)C(C)C)C1 with its measured EC50.
RESULT: 0.442

QUERY: Annotate the molecule COC[C@H]1C[C@@H](c2nc3ccc4cc5c(cc4c3[nH]2)OCc2cc(-c3cnc([C@@H]4CC[C@H](C)N4C(=O)[C@@H](NC(=O)OC)C(C)C)[nH]3)ccc2-5)N(C(=O)[C@H](NC(=O)OC)c2ccccc2)C1 with its measured EC50.
RESULT: 0.011

QUERY: Annotate the molecule COC(=O)N[C@H](C(=O)N1[C@@H](C)CC[C@H]1c1ncc(-c2ccc3c(c2)COc2cc4c(ccc5nc([C@@H]6CC[C@H](C)N6C(=O)[C@@H](NC(=O)OC)C(C)C)[nH]c54)cc2-3)[nH]1)C(C)C with its measured EC50.
RESULT: 0.063

QUERY: Annotate the molecule CCO[C@H]1C[C@@H](c2nc3ccc4cc5c(cc4c3[nH]2)OCc2cc(-c3cnc([C@@H]4CCCN4C(=O)[C@H](NC(=O)OC)c4ccccc4)[nH]3)ccc2-5)N(C(=O)[C@@H](NC(=O)OC)C(C)C)C1 with its measured EC50.
RESULT: 0.037

QUERY: Annotate the molecule COC[C@H]1C[C@@H](c2ncc(-c3ccc4c(c3)COc3cc5c(ccc6nc([C@@H]7CC[C@H](C)N7C(=O)[C@@H](NC(=O)OC)C(C)C)[nH]c65)cc3-4)[nH]2)N(C(=O)[C@@H](NC(=O)OC)C(C)C)C1 with its measured EC50.
RESULT: 0.071

QUERY: Annotate the molecule COC[C@H]1C[C@@H](c2nc3ccc4cc5c(cc4c3[nH]2)OCc2cc(-c3cnc([C@@H]4CCCN4C(=O)[C@@H](NC(=O)OC)C(C)C)[nH]3)ccc2-5)N(C(=O)[C@H](NC(=O)OC)c2ccccc2)C1 with its measured EC50.
RESULT: 0.01

QUERY: Annotate the molecule COC[C@H]1C[C@@H](c2ncc(-c3ccc4c(c3)COc3cc5c(ccc6nc([C@@H]7C[C@H]8C[C@H]8N7C(=O)[C@@H](NC(=O)OC)C(C)C)[nH]c65)cc3-4)[nH]2)N(C(=O)[C@H](NC(=O)OC)c2ccccc2)C1 with its measured EC50.
RESULT: 0.028
